src = paper PMC9911399

Known binding signal of a selection of binders
- TARGET_OR_TEST_SYSTEM: T1, RBFOX1 RRM RbFoxmut (Fox-RRM*) (Homo sapiens, UniProt Q9NWB1 109-208, R118D;E147R;N151S;E152T)
- T1 sequence: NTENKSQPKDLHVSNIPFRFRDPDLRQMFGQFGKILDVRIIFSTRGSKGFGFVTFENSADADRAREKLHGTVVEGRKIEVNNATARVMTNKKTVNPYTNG
- ASSAY_NOTES: EMSA; HiTS-Eq, 1 nM pool, 10 min; buffer printed only for the single-RNA assays: 10 mM Tris pH 7.5, 150 mM NaCl, 3.4 mM EDTA, 0.001% NP-40, 30 C
- APPLIED_CONDITIONS: tags: His6 N-terminal (pET28a); label: 5' 32P
Whole data set: some 16,000 sequences, median “ka relative to ugcaugu” near 0.096, cut for the highest 2% near 0.35. The sample holds the highest values, similar sequences and a random draw of the others, so the mix is not that of the screen.

Some binders with recorded binding signal:
[
  {
    "BINDER": "GGCUUCC (DNA:RNA) RNA: GGGAGACCGGAAUUCAGAUUGUCCGGCUUCCUUAAAUCCCGUCGUAGCCACCA DNA 1: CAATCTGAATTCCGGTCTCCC DNA 2: TGGTGGCTACGACGGGATT",
    "binding signal": "0.142 KA relative to UGCAUGU"
  },
  {
    "BINDER": "CCAACAG (DNA:RNA) RNA: GGGAGACCGGAAUUCAGAUUGUCCCCAACAGUUAAAUCCCGUCGUAGCCACCA DNA 1: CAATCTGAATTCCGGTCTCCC DNA 2: TGGTGGCTACGACGGGATT",
    "binding signal": "0.108 KA relative to UGCAUGU"
  }
]

Exercise: I would be grateful if you could share the reported binding signal for GAUAGGC (DNA:RNA) RNA: GGGAGACCGGAAUUCAGAUUGUCCGAUAGGCUUAAAUCCCGUCGUAGCCACCA DNA 1: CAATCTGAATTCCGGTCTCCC DNA 2: TGGTGGCTACGACGGGATT .
Key: 0.0824 KA relative to UGCAUGU

Exercise: I would be grateful if you could share the reported binding signal for GUCUUGA (DNA:RNA) RNA: GGGAGACCGGAAUUCAGAUUGUCCGUCUUGAUUAAAUCCCGUCGUAGCCACCA DNA 1: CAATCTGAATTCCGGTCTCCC DNA 2: TGGTGGCTACGACGGGATT .
Key: 0.407 KA relative to UGCAUGU

Exercise: I would be grateful if you could share the reported binding signal for AUACCAG (DNA:RNA) RNA: GGGAGACCGGAAUUCAGAUUGUCCAUACCAGUUAAAUCCCGUCGUAGCCACCA DNA 1: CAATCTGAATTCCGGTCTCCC DNA 2: TGGTGGCTACGACGGGATT .
Key: 0.122 KA relative to UGCAUGU

Exercise: I would be grateful if you could share the reported binding signal for CCCAGAA (DNA:RNA) RNA: GGGAGACCGGAAUUCAGAUUGUCCCCCAGAAUUAAAUCCCGUCGUAGCCACCA DNA 1: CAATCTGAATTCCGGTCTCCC DNA 2: TGGTGGCTACGACGGGATT .
Key: 0.0718 KA relative to UGCAUGU

Exercise: I would be grateful if you could share the reported binding signal for UAGAAUG (DNA:RNA) RNA: GGGAGACCGGAAUUCAGAUUGUCCUAGAAUGUUAAAUCCCGUCGUAGCCACCA DNA 1: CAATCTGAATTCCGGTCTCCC DNA 2: TGGTGGCTACGACGGGATT .
Key: 0.953 KA relative to UGCAUGU

Exercise: I would be grateful if you could share the reported binding signal for CAGAUUG (DNA:RNA) RNA: GGGAGACCGGAAUUCAGAUUGUCCCAGAUUGUUAAAUCCCGUCGUAGCCACCA DNA 1: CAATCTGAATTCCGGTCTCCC DNA 2: TGGTGGCTACGACGGGATT .
Key: 0.225 KA relative to UGCAUGU

Exercise: I would be grateful if you could share the reported binding signal for CGCAACA (DNA:RNA) RNA: GGGAGACCGGAAUUCAGAUUGUCCCGCAACAUUAAAUCCCGUCGUAGCCACCA DNA 1: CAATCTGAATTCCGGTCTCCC DNA 2: TGGTGGCTACGACGGGATT .
Key: 0.102 KA relative to UGCAUGU

Exercise: I would be grateful if you could share the reported binding signal for UAGAUUG (DNA:RNA) RNA: GGGAGACCGGAAUUCAGAUUGUCCUAGAUUGUUAAAUCCCGUCGUAGCCACCA DNA 1: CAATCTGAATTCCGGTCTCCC DNA 2: TGGTGGCTACGACGGGATT .
Key: 0.194 KA relative to UGCAUGU

Exercise: I would be grateful if you could share the reported binding signal for CAGAAUG (DNA:RNA) RNA: GGGAGACCGGAAUUCAGAUUGUCCCAGAAUGUUAAAUCCCGUCGUAGCCACCA DNA 1: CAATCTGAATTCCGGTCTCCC DNA 2: TGGTGGCTACGACGGGATT .
Key: 1.17 KA relative to UGCAUGU
